- Target Or Test System: T1, SARS-CoV-2 spike trimer S (Wuhan, SmT1) (SARS-CoV-2 Wuhan)
- T1 construct: extracellular domain
- Test: SPR, antigen on chip
// boundary case: koff equal to 0.005 s⁻¹ maps to 0; strictly smaller maps to 1

Q: Quick check: does NRCoV2-SR04 VHH (VHH) VHH: QVQLVESGGGLVQAGGSLRLSCAASGRTFSSHTVGWYRQAPGKQRDLVAAISMGGNTNYADYADSVKGRFTISRDNAKNTLYLQMNSLKPEDTAVYYCNTAALVGNRLLPMATITWGQGTQVTVSS have koff under 0.005 s⁻¹?
Ans: 1

Q: Quick check: koff of NRCoV2-14 VHH (VHH) VHH: EVQLVSSGGGLVQAGGSLRLSCEASGTTFSHYAVGWYRQAPGKQREWVASISVFGSTTYGGSVAGRFTISRDNDKNTVDLQMNSLKPEDTAVYYCHAVNADIGGDYWGQGTQVTVSS under 0.005 s⁻¹?
Ans: 1

Q: Is 0.005 s⁻¹ strictly greater than the binder's reported koff? binder: NRCoV2-S2G3 VHH (VHH) VHH: QVQLVQSGGGSVQAGGSLRLSCAASGSTFGIFLMGWRRQAPGKQRELVAHITSGGATNYADSVKGRFTISRDNAKNTVYLQMNSLEPEDTAVYYCYTTKRDDASVYWGQGTQVTVSS
Ans: 1

Q: Could you please tell me whether koff recorded for NRCoV2-04 VHH (VHH) VHH: AVQLVDSGGGLVQPGGSLRLSCAASGSPFSNVVMAWYRQAPGKQRERVAFISGGGIADYIMSVKGRFTISRDNAKNTVYLQMNSLKPEDTAVYYCWSSYESTWGQGTQVTVSS is less than 0.005 s⁻¹?
Ans: 0

Q: Just wondering, is koff of NRCoV2-S2A4 VHH (VHH) VHH: QVQLVQSGGGLVQAGGSLRLSCAVSGSPFRSNVMEWYRQAPGKQRELVASISTGGSRTYTDSVKGRFTISRDNAKNEAFLQMNSLKPEDTAVYYCHAAARDSHGIYLLDTWGQGTQVTVSS below 0.005 s⁻¹?
Ans: 1

Q: # check: koff < 0.005 s⁻¹ for NRCoV2-05 VHH (VHH) VHH: EVKLVQSGGGLVQPGGSLRLSCAASGFIFSNYAMNWVRQAPGKGLEWVSGINSGGGDTRYADSVKGRFTVSRDNAKNTLYLQMNSLKPEDTGVYYCSKGPVSSYYGSGYDYRGQGTQVTVSS
Ans: 0

Q: Does this binder meet the criterion koff < 0.005 s⁻¹? NRCoV2-1d VHH (VHH) VHH: EVQLVESGGGSVQPGGSLRLSCAASGSTLDYYAIGWFRQAPGKEREWVSSVSSSDGNTLYADSVKGRFTISRDNAKNTVYLQMNSLKAEDTAVYVCAADYSMRPFAVGRWHRDYEYWGQGTQVTVSS
Ans: 1

Q: Find out if reported koff for NRCoV2-SR13 VHH (VHH) VHH: EVQLVESGGGLVTTGGSLRLSCATSGSRFGSKHMAWYRQAPGKQRDLVAAISSGGSTHYGSSVKGRFTISRDNAKSTVYLQMNSLNPEDTAVFYCNMGGWDYRSNTYIPGSRSDYWGQGTQVTVSS is less than 0.005 s⁻¹
Ans: 1
